Below, each entry is listed alongside its reported MOR agonist activity ([35S]GTPgS binding to Gao).
- experimental.target: mu opiate receptor (MOR) (Rattus norvegicus, UniProt P33535)
- Construct: from tissue; host or cells: striatum (membrane preparation)
- Sequence (P33535 whole entry): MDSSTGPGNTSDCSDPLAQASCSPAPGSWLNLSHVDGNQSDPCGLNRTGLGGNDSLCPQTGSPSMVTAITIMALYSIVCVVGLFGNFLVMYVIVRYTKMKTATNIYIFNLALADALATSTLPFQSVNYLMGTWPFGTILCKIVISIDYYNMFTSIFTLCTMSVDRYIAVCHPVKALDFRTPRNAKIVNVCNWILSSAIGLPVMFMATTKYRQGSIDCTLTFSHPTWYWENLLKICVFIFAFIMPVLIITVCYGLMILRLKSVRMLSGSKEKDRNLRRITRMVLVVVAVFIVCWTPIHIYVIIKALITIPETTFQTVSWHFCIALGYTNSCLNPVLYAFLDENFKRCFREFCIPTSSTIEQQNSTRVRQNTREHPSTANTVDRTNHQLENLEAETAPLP
- test.protocol: MOR agonist activity using [35S]GTPgS binding assay in striatal membranes
- Type: biochemical
- condition: 1 μM compound as agonist; Series C-2 table
measured.quantity: MOR agonist activity ([35S]GTPgS binding to Gao) (%)

# compound, experimental.target, reported.value
measured = [
    ("CN1CCC2(CC1)NCC(=O)N2Cc1ccccc1 [Compound C0105M]", "mu opiate receptor (MOR) (Rattus norvegicus, UniProt P33535)", 220.3),
    ("O=C1CN(Cc2ccccc2)C2(CCN(CC3CC3)CC2)N1 [Compound C0125M]", "mu opiate receptor (MOR) (Rattus norvegicus, UniProt P33535)", 195.2),
    ("CN1CCC2(CC1)OCCN2S(=O)(=O)c1ccc(S(C)(=O)=O)cc1 [Compound C0106M]", "mu opiate receptor (MOR) (Rattus norvegicus, UniProt P33535)", 240.7),
    ("CC(=O)c1ccc(S(=O)(=O)N2CCOC23CCNCC3)cc1 [Compound C0046]", "mu opiate receptor (MOR) (Rattus norvegicus, UniProt P33535)", 492.9),
    ("CC(=O)c1ccc(S(=O)(=O)N2CCOC23CCN(C)CC3)cc1 [Compound C0093M]", "mu opiate receptor (MOR) (Rattus norvegicus, UniProt P33535)", 211.8),
    ("CC(=O)c1ccc(S(=O)(=O)N2CC(CN(C)C)OC23CCN(C)CC3)cc1 (stereo not drawn) [Compound C0108M]", "mu opiate receptor (MOR) (Rattus norvegicus, UniProt P33535)", 258.5),
    ("CC(=O)c1ccc(S(=O)(=O)N2CCC3(CC2)NCCS3)cc1 [Compound C0060]", "mu opiate receptor (MOR) (Rattus norvegicus, UniProt P33535)", 218.9),
    ("C=CCN1CCC2(CC1)OCCN2S(=O)(=O)c1ccc(OC)cc1 [Compound C0091M]", "mu opiate receptor (MOR) (Rattus norvegicus, UniProt P33535)", 274.4),
    ("COc1ccc(NC(=O)N2CCC3(CC2)NCCO3)cc1 [Compound C0151M-2]", "mu opiate receptor (MOR) (Rattus norvegicus, UniProt P33535)", 397.6),
    ("O=[N+]([O-])c1ccc(S(=O)(=O)N2CCC3(CC2)NCCCO3)cc1 [Compound C0045]", "mu opiate receptor (MOR) (Rattus norvegicus, UniProt P33535)", 238.8),
    ("CCc1ccc(S(=O)(=O)N2CCOC23CCN(CC2CC2)CC3)cc1 [Compound C0135M]", "mu opiate receptor (MOR) (Rattus norvegicus, UniProt P33535)", 310.1),
    ("CC(=O)c1ccc(S(=O)(=O)N2CCOC23CCN(CC2CC2)CC3)cc1 [Compound C0095M]", "mu opiate receptor (MOR) (Rattus norvegicus, UniProt P33535)", 224.6),
    ("O=C1CN(Cc2ccccc2)C2(CCNCC2)N1 [Compound C0115M]", "mu opiate receptor (MOR) (Rattus norvegicus, UniProt P33535)", 226.8),
    ("CS(=O)(=O)c1ccc(S(=O)(=O)N2CCOC23CCNCC3)cc1 [Compound C0116M]", "mu opiate receptor (MOR) (Rattus norvegicus, UniProt P33535)", 302.8),
    ("O=C1CNC2(CCN(CC3CC3)CC2)N1Cc1ccccc1 [Compound C0124M]", "mu opiate receptor (MOR) (Rattus norvegicus, UniProt P33535)", 305.1),
    ("CC(=O)c1ccc(S(=O)(=O)N2CCOC23CCN(CC(=O)O)CC3)cc1 [Compound C0100M]", "mu opiate receptor (MOR) (Rattus norvegicus, UniProt P33535)", 245.9),
    ("COc1ccc(S(=O)(=O)N2CCOC23CCN(C(C)C)CC3)cc1 [Compound C0133M]", "mu opiate receptor (MOR) (Rattus norvegicus, UniProt P33535)", 214.8),
    ("CC(=O)c1ccc(S(=O)(=O)N2CCC3(CC2)OCCN3S(C)(=O)=O)cc1 [Compound C0056]", "mu opiate receptor (MOR) (Rattus norvegicus, UniProt P33535)", 193.4),
    ("COc1ccc(S(=O)(=O)N2CCOC23CCN(CC2CC2)CC3)cc1 [Compound C0090M]", "mu opiate receptor (MOR) (Rattus norvegicus, UniProt P33535)", 341.0),
    ("CC(=O)c1ccc(S(=O)(=O)N2CCC3(CC2)NC(=O)CO3)cc1 [Compound C0087M]", "mu opiate receptor (MOR) (Rattus norvegicus, UniProt P33535)", 329.6),
    ("COc1ccc(S(=O)(=O)N2CCOC23CCCNC3)cc1 (stereo not drawn) [Compound C0145M-3]", "mu opiate receptor (MOR) (Rattus norvegicus, UniProt P33535)", 289.2),
    ("O=C1CN(C2CCc3ccccc3C2)C2(CCN(S(=O)(=O)c3ccccc3)CC2)N1 (stereo not drawn) [C0136M/ (P5)]", "mu opiate receptor (MOR) (Rattus norvegicus, UniProt P33535)", 237.3),
    ("CN1CCC2(CC1)NC(=O)CN2Cc1ccccc1 [Compound C0104M]", "mu opiate receptor (MOR) (Rattus norvegicus, UniProt P33535)", 238.9),
    ("COc1ccc(S(=O)(=O)N2CCOC23CCN(C(=O)OC(C)(C)C)CC3)cc1 [Compound C0043]", "mu opiate receptor (MOR) (Rattus norvegicus, UniProt P33535)", 242.6),
    ("COc1ccc(S(=O)(=O)N2CCC3(CC2)NCCC(=O)N3)cc1 [Compound C0142M]", "mu opiate receptor (MOR) (Rattus norvegicus, UniProt P33535)", 192.5),
    ("CCOC(=O)CN1CCC2(CC1)OCCN2S(=O)(=O)c1ccc(C(C)=O)cc1 [Compound C0099M]", "mu opiate receptor (MOR) (Rattus norvegicus, UniProt P33535)", 195.7),
    ("CC(=O)c1ccc(S(=O)(=O)N2CC(CN(C)C)OC23CCN(CC2CC2)CC3)cc1 (stereo not drawn) [Compound C0128M]", "mu opiate receptor (MOR) (Rattus norvegicus, UniProt P33535)", 286.0),
    ("COc1ccc(S(=O)(=O)N2CCOC23CCN(C)CC3)cc1 [Compound C0088M]", "mu opiate receptor (MOR) (Rattus norvegicus, UniProt P33535)", 355.3),
    ("O=S(=O)(c1cccc2cccnc12)N1CCC2(CC1)OCCN2S(=O)(=O)c1cccc2cccnc12 [Compound C0143M]", "mu opiate receptor (MOR) (Rattus norvegicus, UniProt P33535)", 193.3),
    ("O=C1CNC2(CCNCC2)N1Cc1ccccc1 [Compound C0114M]", "mu opiate receptor (MOR) (Rattus norvegicus, UniProt P33535)", 144.3),
]
